- ASSAY_SYSTEM: Human immunodeficiency virus type 1 protease (Human immunodeficiency virus 1, UniProt Q72874)
pKi: −log10 of the molar value.
PARAMETER: pKi

# SAMPLE_SMILES, RESULT
records = [
    ("O=C1N(Cc2ccccc2)[C@H](CC2CCCCC2)[C@H](O)[C@@H](O)[C@@H](CC2CCCCC2)N1Cc1ccccc1", 7.55),
    ("COc1cc(C[C@@H]2[C@H](O)[C@@H](O)[C@@H](Cc3cc(OC)cc(OC)c3)N(CC3CC3)C(=O)N2CC2CC2)cc(OC)c1", 8.57),
    ("C[C@@H]1[C@H](O)[C@@H](O)[C@@H](C)N(Cc2ccccc2)C(=O)N1Cc1ccccc1", 5.30),
    ("O=C1N(CC2CC2)[C@H](Cc2ccc(F)cc2)[C@H](O)[C@@H](O)[C@@H](Cc2ccc(F)cc2)N1CC1CC1", 8.24),
    ("CC(C)c1ccc(C[C@@H]2[C@H](O)[C@@H](O)[C@@H](Cc3ccc(C(C)C)cc3)N(Cc3ccccc3)C(=O)N2Cc2ccccc2)cc1", 8.96),
]
